B1: ESR2 (parent)
chain: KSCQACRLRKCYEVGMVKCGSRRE

Variants of: B1
Procedure text: protein stability index of a GFP-peptide fusion (GPS, HEK-293T) (PSI 1-6); higher = more stable;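 further: lentivirally expressed fusions sorted by FACS into six bins by GFP to DsRed ratio, PSI derived from sequencing read proportions per bin multiplied by bin number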
Test conditions: c terminus: a fixed tail appended
If the reported protein stability index equals or exceeds 2, assign label 1. If not, assign label 0.

Request: Confirm if protein stability index reported for the variant C6T is 2 or above.
Response: label 1

Request: Follow-up item: C19L
Response: label 0

Request: Follow-up item: R9N
Response: label 0

Request: Follow-up item: S21K
Response: label 1

Request: Follow-up item: R9A
Response: label 0

Request: Follow-up item: E24G
Response: label 1

Request: Follow-up item: L8N
Response: label 1

Request: Follow-up item: V14G
Response: label 0

Request: Follow-up item: C11M
Response: label 1

Source listed as the supplement of paper PMC10567573.
